System: NCI-H23
protocol.details: NCI tumour cell line growth inhibition, 48 h
Activity calls are given as the source filed them. Rule as the data show it: active = GI50 up to about 1.1 µM and inactive = higher.
We begin with a simple list: items and their reported GI50.

Cc1ccc2nc3c(C)cc(=O)cc-3sc2c1; 20.8 µM (inactive)
C=CC(=O)N1C/C(=C\c2ccc(N(C)C)cc2)C(=O)/C(=C/c2ccc(N(C)C)cc2)C1; > 100 µM (inactive)
CCOC(=O)c1c2cccccc2n2c(=O)cc(C)nc12; > 100 µM (inactive)
COc1ccc(OC)c2c1C(=O)C1CC1(Br)C2=O (stereo not given); > 100 µM (inactive)

Query: Name the reported GI50 value associated with the molecule CCOC(=O)C1=C(C)NC(C)=C(C(=O)OCCNC(=O)c2ccc(N=[N+]=[N-])cc2)C1c1ccccc1C(F)(F)F (stereo not given)
Response: 11.3 µM (inactive)

====

System: EKVX
protocol.details: NCI tumour cell line growth inhibition, 48 h
The source made the active and inactive calls. No stated cut-off is given here; in the data, active = GI50 up to about 1.1 µM and inactive = higher.
readout.label: GI50

Reference set, count: 10
CC1CN=C(Nc2ccc(S(N)(=O)=O)cc2)S1 (stereo unspecified); > 100 µM (inactive)
COc1ccc(C(CC(=O)C(C)(C)CN2CCCCC2)SCCS(=O)(=O)O)cc1 (stereo unspecified); 30.4 µM (inactive)
O=C(O)C1=C(C(=O)Nc2ccccc2)C2C=CC1C2 (stereo unspecified); > 100 µM (inactive)
N#Cc1c(-c2ccccc2)c(C#N)c(=O)n(NS(=O)(=O)c2ccccc2)c1O; > 100 µM (inactive)
Cc1nc2nc3c(ncn3COCCO)c(O)n2c1C(c1ccccc1)(c1ccccc1)c1ccccc1; 19.4 µM (inactive)
COc1ccc2c(c1)CC1=C(O2)c2ccc(OC)cc2OC1; 15.2 µM (inactive)
Cc1ccc2c(c1)NC(=O)CCSSCCC(=O)N2; > 100 µM (inactive)
COCOc1c(C(OCOC)c2cnc(Sc3ccccc3)n2C)ccc(OC)c1OC (stereo unspecified); > 100 µM (inactive)
Cc1ccc(/C=C2\CCCC(CN(C)C)C2=O)cc1 (stereo unspecified); 17.5 µM (inactive)
CC(C)OC(=O)c1ccc(NCC2=CC(=O)C=CC2=O)cc1; 17.3 µM (inactive)

For the next question, use this compound.
Query: Quick check: GI50 of CCCCCCCCCCCCc1ccsc1-c1ccc(-c2ccc(-c3sccc3CCCCCCCCCCCC)s2)s1 ?
Response: > 100 µM (inactive)

====

Tested on: OVCAR-4
protocol.details: NCI tumour cell line growth inhibition, 48 h
Calls of active or inactive are those of the source. Cut-off read from the data, not from the text of the source: active = GI50 up to about 1.1 µM and inactive = higher.
Parameter call: string, one of true = active, false = inactive

COc1cc(C2c3cc4c(cc3[C@@H](N(C)C)[C@H]3COC(=O)C23)OCO4)cc(OC)c1O (some centres undefined); false

Query: Test call for this compound, please: COC(=O)C1=C(CO)C2C=CC1C2 (centres undefined)
Response: false

Query: // outcome(item) with item = COC(=O)C1CCC(=O)N1C(c1ccccc1)c1ccc(OC)c(OC)c1 (centres undefined)
Response: false

Query: How was CC1=NN(c2nc(N)nc(C/C(N)=N/O)n2)C(C)(C)C1 classified in this test?
Response: false

====

Tested on: UO-31
protocol.details: NCI tumour cell line growth inhibition, 48 h
Activity calls are given as the source filed them. No stated cut-off is given here; in the data, active = GI50 up to about 1.1 µM and inactive = higher.
Parameter call: string, one of active, inactive

Query: Outcome logged for Cc1c2cc[n+](C)cc2c(C)c2c1[nH]c1ccc(OC(C)C)cc12 in this assay:
Response: inactive

Query: Tell me the recorded outcome of this test for CC1=CC[C@H](C)C(C)(C)C1/C=C/C(C)=C/CC[C@@]1(CO)[C@H](CCCO)/C(=C(/C)C=O)CC[C@]1(C)O (stereo partly specified) .
Response: inactive

Query: Returns: the outcome recorded for O=[N+]([O-])c1cc(Cl)ccc1S(=O)(=O)N1CCCc2cc(Cl)ccc21 in this assay.
Response: inactive

Query: For N#CC1([N+](=O)[O-])C=C1c1ccccc1 (stereo unspecified) , what call appears in the results of this test?
Response: inactive

Query: Given Cc1csc(-n2nc(C)cc2C)n1 , state the outcome it received in this test.
Response: inactive

Query: Record lookup: outcome of this test for Nc1ccc2c(c1)N(C(=O)CCCC(=O)N1CC(CCl)c3ccc(N)cc31)CC2CCl (stereo unspecified) ?
Response: active

Query: What did the test return for O=C(O)[C@H]1NC[C@@H]2ON=C(Br)[C@@H]21 ?
Response: inactive

Query: Dear all, I need the recorded test outcome for O=c1oc2ccc([N+](=O)[O-])cc2c(Nc2ccc3c(c2)Sc2ccccc2O3)c1[N+](=O)[O-] , thank you.
Response: inactive
